Below: a set of entries, each annotated with reported pIC50.
system: MYC; experiment: In vitro transcription-translation (IVTT) assay, MYC reporter; assay type: biochemical; conditions: IVTT assay, HeLa S3 lysate, MYC reporter, normalized sfGFP/mCherry ratio; half-log dilutions 30 μM-0.1 μM, 2 hrs at 30° C.
pIC50: −log10 of the molar value.

COMPOUND	pIC50
COc1ccc(C[C@H]2NC[C@H](O)[C@H]2OC(=O)NC[C@H]2CCN(C)C2)cc1 [V188108]	< 4.52
COc1ccc(C[C@H]2NC[C@H](O)[C@H]2OC(=O)NCCn2ccnc2N)cc1	4.70 to 5.00
O=C(NCC[C@@H]1CCCN1)O[C@@H]1[C@@H](O)CN[C@@H]1Cc1ccc([N+](=O)[O-])cc1	> 5.00
O=C(NCC1(F)CC1)O[C@@H]1[C@@H](O)CN[C@@H]1Cc1ccc(Cl)cc1	< 4.52
O=C(NCC[C@@H]1CCCN1)O[C@@H]1[C@@H](O)CN[C@@H]1Cc1ccc(-c2cncs2)cc1	> 5.00
O=C(NCc1cc(F)c(O)c(F)c1)O[C@@H]1[C@@H](O)CN[C@@H]1Cc1ccc(-c2cnco2)cc1	> 5.00
O=C(NCCC1CCNCC1)O[C@@H]1[C@@H](O)CN[C@@H]1Cc1ccc(-c2cncs2)cc1	> 5.00
O=C(NCC[C@@H]1CCNC1)O[C@@H]1[C@@H](O)CN[C@@H]1Cc1ccc(-c2cnco2)cc1	> 5.00

---

Below: a set of entries, each annotated with reported IC50.
system: MYC; experiment: In vitro transcription-translation (IVTT) assay, MYC reporter; assay type: biochemical; details: IVTT assay, HeLa S3 lysate, MYC reporter, normalized sfGFP/mCherry ratio; half-log dilutions 30 μM-0.1 μM, 2 hrs at 30° C.
OBSERVED PROPERTY: IC50

COMPOUND	TARGET DESC	RESULT
O=C(NCc1cc[nH]c(=O)c1)O[C@@H]1[C@@H](O)CN[C@@H]1Cc1ccc(Cl)cc1 [V188274]	MYC	< 10 µM
O=C(NCc1cccc(F)c1)O[C@@H]1[C@@H](O)CN[C@@H]1Cc1cccnc1 [V190519]	MYC	20 to 30 µM
COc1ccc(C[C@H]2NC[C@H](O)[C@H]2OC(=O)NCCO[C@@H]2CCNC2)cc1 [V188071]	MYC	10 to 20 µM
O=C(NCC[C@@H]1CCN1)O[C@@H]1[C@@H](O)CN[C@@H]1Cc1ccc(-c2cnco2)cc1F [V192990]	MYC	< 10 µM
O=C(NCc1ccc2c(c1)CCNC2)O[C@@H]1[C@@H](O)CN[C@@H]1Cc1ccc(-c2cncs2)cc1 [V192109]	MYC	< 10 µM
COc1ccc(C[C@H]2NC[C@H](O)[C@H]2OC(=O)NCc2cccc(Cl)c2)cc1 [V191904]	MYC	< 10 µM
O=C(NCC[C@@H]1CCN1)O[C@@H]1[C@@H](O)CN[C@@H]1Cc1ccc(-c2cnco2)c(F)c1 [V192991]	MYC	< 10 µM
O=C(NCc1cnn(C(F)F)c1)O[C@@H]1[C@@H](O)CN[C@@H]1Cc1ccc(-c2cnco2)cc1 [V193078]	MYC	< 10 µM

---

Below: a set of entries, each annotated with reported pIC50.
tested on: HPAF-II; test: Cell viability (CellTiter-Fluor), HPAF-II; assay type: cell-based; settings: Homo sapiens, 24-72 hrs
pIC50: −log10 of the molar value.

COMPOUND STRUCTURE	TARGET DESC	pIC50
COc1ccc(C[C@H]2NC[C@H](O)[C@H]2OC(=O)NCC[C@@H]2CCNC2)cc1	HPAF-II	≤ 5.40
COc1ccc(C[C@H]2NC[C@H](O)[C@H]2OC(=O)NCc2ccnc(N)c2)cc1	HPAF-II	5.40 to 6.00
COc1ccc(C[C@H]2NC[C@H](O)[C@H]2OC(=O)NCc2ccnnc2)cc1	HPAF-II	5.40 to 6.00
COc1ccc(C[C@H]2NC[C@H](O)[C@H]2OC(=O)NCc2c[nH]nn2)cc1	HPAF-II	5.40 to 6.00
COc1ccc(C[C@H]2NC[C@H](O)[C@H]2OC(=O)NCCc2cn[nH]c2)cc1	HPAF-II	6.00 to 6.60
COc1ccc(C[C@H]2NC[C@H](O)[C@H]2OC(=O)NCC2CC2)cc1	HPAF-II	6.00 to 6.60
COc1ccc(C[C@H]2NC[C@H](O)[C@H]2OC(=O)NCc2cc[nH]c(=O)c2)cc1	HPAF-II	5.40 to 6.00
COc1ccc(C[C@H]2NC[C@H](O)[C@H]2OC(=O)NCc2ccncc2)cc1	HPAF-II	6.00 to 6.60
COc1ccc(C[C@H]2NC[C@H](O)[C@H]2OC(=O)NCc2ccccc2)cc1	HPAF-II	6.00 to 6.60
COc1ccc(C[C@H]2NC[C@H](O)[C@H]2OC(=O)NC[C@H]2CCNC2)cc1	HPAF-II	≤ 5.40

---

Below: a set of entries, each annotated with reported IC50.
tested on: CCND1; assay: In vitro transcription-translation (IVTT) assay, CCND1 reporter; format: biochemical; details: HeLa S3 lysate, sfGFP/mCherry ratio, 2 hrs at 30° C.

COMPOUND	TARGET DESC	IC50
COc1ccc(C[C@H]2NC[C@H](O)[C@H]2OC(=O)NCc2c[nH]nn2)cc1 [V187536]	CCND1	< 10 µM
COc1ccc(C[C@H]2NC[C@H](O)[C@H]2OC(=O)NCCc2ccon2)cc1 [V187700, trifluoroacetic acid]	CCND1	< 10 µM
COc1ccc(C[C@H]2NC[C@H](O)[C@H]2OC(=O)NCC(=O)O)cc1 [V188016]	CCND1	> 30 µM
COc1ccc(C[C@H]2NC[C@H](O)[C@H]2OC(=O)NCCCCO)cc1 [V187586]	CCND1	< 10 µM
COc1ccc(C[C@H]2NC[C@H](O)[C@H]2OC(=O)NCCc2ccn(C)n2)cc1 [V187847]	CCND1	10 to 20 µM
COc1ccc(C[C@H]2NC[C@H](O)[C@H]2OC(=O)NCc2cc[nH]c(=O)c2)cc1 [V188053]	CCND1	< 10 µM
COc1ccc(C[C@H]2NC[C@H](O)[C@H]2OC(=O)NCc2ccnc(N)c2)cc1 [V187988]	CCND1	< 10 µM
COc1ccc(C[C@H]2NC[C@H](O)[C@H]2OC(=O)NCCCCCO)cc1 [V187587]	CCND1	< 10 µM

---

tested on: MYC; assay: In vitro transcription-translation (IVTT) assay, MYC reporter; assay type: biochemical; details: IVTT assay, HeLa S3 lysate, MYC reporter, normalized sfGFP/mCherry ratio; half-log dilutions 30 μM-0.1 μM, 2 hrs at 30° C.
Below: a set of entries, each annotated with reported IC50.
OBSERVED PROPERTY: IC50

COMPOUND STRUCTURE	RESULT
O=C(NCc1ccccc1)O[C@@H]1[C@@H](O)CN[C@@H]1Cc1ccc(-c2c[nH]nn2)cc1	< 10 µM
O=C(NCCc1cccc(F)c1)O[C@@H]1[C@@H](O)CN[C@@H]1Cc1ccc(-c2cnco2)cc1	< 10 µM
COc1ccc(C[C@H]2NC[C@H](O)[C@H]2OC(=O)NCc2ccnc(N3CC(O)C3)c2)cc1	< 10 µM
COc1ccc(C[C@H]2NC[C@H](O)[C@H]2OC(=O)NCc2ccnc(F)c2)cc1	< 10 µM

---

Below: a set of entries, each annotated with reported IC50.
test system: MYC; assay: In vitro transcription-translation (IVTT) assay, MYC reporter; assay type: biochemical; conditions: IVTT assay, HeLa S3 lysate, MYC reporter, normalized sfGFP/mCherry ratio; half-log dilutions 30 μM-0.1 μM, 2 hrs at 30° C.

COMPOUND	IC50
O=C(NCc1cccc(F)c1)O[C@@H]1[C@@H](O)CN[C@@H]1Cc1ccc(C(F)F)cc1 [V192274]	< 10 µM
COc1ccc(C[C@H]2NC[C@H](O)[C@H]2OC(=O)NCc2ccc(N)nc2)cc1 [V188316]	< 10 µM
O=C(NCCC1CCNCC1)O[C@@H]1[C@@H](O)CN[C@@H]1Cc1ccc(-c2ccc(C(F)(F)F)cc2)cc1 [V192052]	> 30 µM
O=C(NCC1CC1)O[C@@H]1[C@@H](O)CN[C@@H]1Cc1ccc(-c2c[nH]nn2)cc1 [V188327]	< 10 µM

---

test system: MYC; test: In vitro transcription-translation (IVTT) assay, MYC reporter; assay type: biochemical; conditions: IVTT assay, HeLa S3 lysate, MYC reporter, normalized sfGFP/mCherry ratio; half-log dilutions 30 μM-0.1 μM, 2 hrs at 30° C.
Below: a set of entries, each annotated with reported IC50.

COMPOUND STRUCTURE	IC50
O=C(NCCSC(F)(F)F)O[C@@H]1[C@@H](O)CN[C@@H]1Cc1ccc(-c2cnco2)cc1	< 10 µM
COc1ccc(C[C@H]2NC[C@H](O)[C@H]2OC(=O)NCc2nnc(C)o2)cc1	< 10 µM
O=C(NC[C@H]1CCNC1)O[C@@H]1[C@@H](O)CN[C@@H]1Cc1ccc(Cl)cc1	> 30 µM
COc1ccc(C[C@H]2NC[C@H](O)[C@H]2OC(=O)NCc2ccnc3c2CCN3)cc1	< 10 µM
COc1ccc(C[C@H]2NC[C@H](O)[C@H]2OC(=O)NCc2ccc(N)nn2)cc1	< 10 µM
COc1ccc(C[C@H]2NC[C@H](O)[C@H]2OC(=O)NCC=C(C)C)cc1	10 to 20 µM
COc1ccc(C[C@H]2NC[C@H](O)[C@H]2OC(=O)NCc2ccnc(N3CC(F)(F)C3)c2)cc1	< 10 µM
COc1ccc(C[C@H]2NC[C@H](O)[C@H]2OC(=O)NCc2ccc3cn[nH]c3c2)cc1	< 10 µM
COc1ccc(C[C@H]2NC[C@H](O)[C@H]2OC(=O)NCc2cc(F)cc(F)c2)cc1	< 10 µM
COc1ccc(C[C@H]2NC[C@H](O)[C@H]2OC(=O)NCc2ccc(C3CC3)cc2)cc1	> 30 µM
O=C(NCc1cccc(F)c1)O[C@@H]1[C@@H](O)CN[C@@H]1Cc1ccc(-c2ccc3ncsc3c2)cc1	< 10 µM
O=C(NCc1ccc(F)cc1)O[C@@H]1[C@@H](O)CN[C@@H]1Cc1ccc(Cl)cc1	10 to 20 µM
O=C(NCc1ccnc(N2CCC2)c1)O[C@@H]1[C@@H](O)CN[C@@H]1Cc1ccc(-c2cnco2)cc1	< 10 µM
COc1ccc(C[C@H]2NC[C@H](O)[C@H]2OC(=O)NCc2ccccc2Cl)cc1	< 10 µM
COc1ccc(C[C@H]2NC[C@H](O)[C@H]2OC(=O)NCc2ccnc(C(F)(F)F)c2)cc1	< 10 µM
O=C(NCC1CC1)O[C@@H]1[C@@H](O)CN[C@@H]1Cc1ccc(Cl)cc1	< 10 µM
COc1ccc(C[C@H]2NC[C@H](O)[C@H]2OC(=O)NCCC(C)(C)O)cc1	10 to 20 µM

Hey, just so you know, these numbers are from patent US20250129021A1.
